System: HCC78
Method notes: Antiproliferative activity against human HCC78 cells after 48 hrs by MTT assay
Conditions used: HCC78, 48 h
This section presents compounds with their documented IC50 values.
Outcome measure: IC50 (µM)

>>> observed_measurement("Cc1ccc(CNC(=O)c2cccc(C(C)Oc3cccnc3Nc3nncs3)c2)cc1 (stereo unspecified)")
17.6
>>> observed_measurement("COc1cccc(CNC(=O)c2cccc(C(C)Oc3ccnc(Nc4cnn(C)c4)c3)c2)c1 (stereo unspecified)")
64.4
>>> observed_measurement("CC(Oc1ccnc(Nc2cnn(C)c2)c1)c1cccc(C(=O)NCc2cc(F)cc(F)c2)c1 (stereo unspecified)")
13.2
>>> observed_measurement("Cc1ccc(CNC(=O)c2cccc(C(C)Oc3ccnc(Nc4cn(C)nc4C)c3)c2)cc1 (stereo unspecified)")
17.5

###

Study system: Proto-oncogene tyrosine-protein kinase ROS (Homo sapiens, UniProt P08922)
Sequence (P08922 whole entry): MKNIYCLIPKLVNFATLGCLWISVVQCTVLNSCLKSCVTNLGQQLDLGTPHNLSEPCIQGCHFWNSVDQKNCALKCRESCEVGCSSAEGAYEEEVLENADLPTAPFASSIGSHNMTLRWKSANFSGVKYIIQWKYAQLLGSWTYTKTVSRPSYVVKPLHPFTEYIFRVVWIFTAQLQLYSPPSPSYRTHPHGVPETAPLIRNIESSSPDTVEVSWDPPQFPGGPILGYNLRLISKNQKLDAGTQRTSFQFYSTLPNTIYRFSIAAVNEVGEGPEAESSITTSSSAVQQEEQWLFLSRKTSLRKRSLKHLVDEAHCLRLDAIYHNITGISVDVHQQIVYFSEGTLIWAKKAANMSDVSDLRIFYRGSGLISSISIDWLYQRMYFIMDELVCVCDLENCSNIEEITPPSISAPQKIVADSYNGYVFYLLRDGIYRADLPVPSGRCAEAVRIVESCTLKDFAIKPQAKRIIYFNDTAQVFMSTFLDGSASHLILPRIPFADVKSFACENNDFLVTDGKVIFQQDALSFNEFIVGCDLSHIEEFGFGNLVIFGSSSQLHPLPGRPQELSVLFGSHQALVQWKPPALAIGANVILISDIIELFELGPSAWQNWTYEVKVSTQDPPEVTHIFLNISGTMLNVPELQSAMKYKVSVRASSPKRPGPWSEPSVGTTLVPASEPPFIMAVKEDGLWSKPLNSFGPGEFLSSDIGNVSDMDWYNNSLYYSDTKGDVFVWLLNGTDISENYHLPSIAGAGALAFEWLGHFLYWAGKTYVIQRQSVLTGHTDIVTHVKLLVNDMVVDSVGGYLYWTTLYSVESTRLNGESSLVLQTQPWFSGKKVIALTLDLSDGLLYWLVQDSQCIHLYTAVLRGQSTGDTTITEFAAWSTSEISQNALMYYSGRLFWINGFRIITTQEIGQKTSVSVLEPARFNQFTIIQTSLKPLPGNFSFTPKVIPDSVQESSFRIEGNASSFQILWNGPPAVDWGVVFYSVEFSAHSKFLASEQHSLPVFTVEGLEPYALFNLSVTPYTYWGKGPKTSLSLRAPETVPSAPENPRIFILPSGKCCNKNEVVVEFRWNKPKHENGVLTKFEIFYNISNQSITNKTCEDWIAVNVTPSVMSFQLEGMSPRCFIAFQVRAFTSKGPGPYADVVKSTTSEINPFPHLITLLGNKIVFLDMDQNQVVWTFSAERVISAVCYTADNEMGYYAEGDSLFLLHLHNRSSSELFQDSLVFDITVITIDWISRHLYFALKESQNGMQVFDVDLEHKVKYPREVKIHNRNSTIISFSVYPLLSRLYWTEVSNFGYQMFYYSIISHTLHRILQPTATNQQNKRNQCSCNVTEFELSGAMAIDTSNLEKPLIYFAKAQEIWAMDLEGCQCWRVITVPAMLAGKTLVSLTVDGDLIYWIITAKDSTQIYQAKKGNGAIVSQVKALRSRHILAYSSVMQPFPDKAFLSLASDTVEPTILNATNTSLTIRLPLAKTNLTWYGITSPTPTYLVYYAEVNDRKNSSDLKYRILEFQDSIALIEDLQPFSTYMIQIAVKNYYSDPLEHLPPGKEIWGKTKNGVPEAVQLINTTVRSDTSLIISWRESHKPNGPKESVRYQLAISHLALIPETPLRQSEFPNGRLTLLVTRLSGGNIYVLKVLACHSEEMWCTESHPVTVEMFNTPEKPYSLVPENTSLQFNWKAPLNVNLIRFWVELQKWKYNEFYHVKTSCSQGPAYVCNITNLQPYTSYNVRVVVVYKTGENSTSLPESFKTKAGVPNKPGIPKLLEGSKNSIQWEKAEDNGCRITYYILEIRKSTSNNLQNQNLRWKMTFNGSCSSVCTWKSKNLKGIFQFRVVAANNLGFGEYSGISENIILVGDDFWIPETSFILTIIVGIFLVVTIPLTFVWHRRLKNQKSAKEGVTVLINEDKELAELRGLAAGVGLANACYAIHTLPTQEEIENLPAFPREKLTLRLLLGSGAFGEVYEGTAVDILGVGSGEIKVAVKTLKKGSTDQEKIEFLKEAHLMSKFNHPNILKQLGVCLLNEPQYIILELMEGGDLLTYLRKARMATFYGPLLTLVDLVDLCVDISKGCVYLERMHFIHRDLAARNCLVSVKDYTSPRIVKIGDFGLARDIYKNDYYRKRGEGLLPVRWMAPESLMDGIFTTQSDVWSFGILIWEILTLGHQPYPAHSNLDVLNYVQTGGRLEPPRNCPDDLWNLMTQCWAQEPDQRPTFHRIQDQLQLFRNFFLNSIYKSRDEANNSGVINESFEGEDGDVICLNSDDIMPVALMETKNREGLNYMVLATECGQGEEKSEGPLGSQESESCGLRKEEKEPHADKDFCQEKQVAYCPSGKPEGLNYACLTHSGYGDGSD
Method notes: Inhibition of recombinant human GST-tagged ROS1 expressed in baculovirus expression system by Z'LYTE assay
Outcome measure: IC50 (µM)

>>> observed_measurement("COc1ccc(CNC(=O)c2cccc(C(C)Oc3ccnc(Nc4cnn(C5CCNCC5)c4)c3)c2)cc1OC (stereo not given)")
0.37
>>> observed_measurement("CC(Oc1ccnc(Nc2cnn(C3CCN(C)CC3)c2)c1)c1cccc(C(=O)NCc2ccc(Cl)c(C(F)(F)F)c2)c1 (stereo not given)")
2.3
>>> observed_measurement("COc1cc(Nc2cc(OC(C)c3cccc(C(=O)NCc4ccc(C)cc4)c3)ccn2)cc(OC)c1OC (stereo not given)")
2.4
>>> observed_measurement("CC(Oc1ccnc(Nc2cnn(C)c2)c1)c1cccc(C(=O)NCc2cc(C(F)(F)F)cc(C(F)(F)F)c2)c1 (stereo not given)")
7.4
>>> observed_measurement("COc1ccc(CNC(=O)c2cccc(C(C)Oc3ccnc(Nc4cnn(C5CCN(C)CC5)c4)c3)c2)cc1OC (stereo not given)")
0.57
>>> observed_measurement("Cc1ccc(CNC(=O)c2cccc(C(C)Oc3cccnc3Nc3ncc(C)s3)c2)cc1 (stereo not given)")
9.4
>>> observed_measurement("CC(Oc1ccnc(Nc2cnn(CC(C)(C)O)c2)c1)c1cccc(C(=O)NCc2ccc(Cl)c(C(F)(F)F)c2)c1 (stereo not given)")
8.4
>>> observed_measurement("CC(Oc1ccnc(NN2CCN(C)CC2)c1)c1cccc(C(=O)NCc2ccc(Cl)c(C(F)(F)F)c2)c1 (stereo not given)")
9.1
>>> observed_measurement("CC(Oc1cccnc1Nc1cnn(C)c1)c1cccc(C(=O)NCc2ccccc2S(=O)(=O)C(C)C)c1 (stereo not given)")
8.7
